test: In vitro enzyme assay to detect hydrolysis of chlorophenol red-beta-D-[…] directly proportional to the number of Toxoplasma stably expressing beta-galactosidase; type: functional, organism-based, Toxoplasma gondii; parameters: scale not given: in the data most compounds retested in dose-response had high values; conditions: 10 µM
The campaign covered roughly 85,000 compounds. About 440 (0.52%) showed an effect of 50% or more. The list comes from a sample in which strong results are over-represented; it also holds close analogues and randomly drawn compounds.
Quantity: Percent Effect (%)
Write it as a number; the unit % goes unstated.

{"columns": ["Molecule", "Percent Effect [%]"],
 "data": [
  ["Cl.NC(CC1CCCC1)c1ccccc1 (stereo not drawn)", -47.66],
  ["CCN(Cc1nonc1C)C(=O)Cn1nc(C(F)(F)F)cc1C", 32.79],
  ["O=C(O)C(F)(F)F.O=C([C@@H]1CCO[C@@H]2CCN(Cc3cccs3)C[C@H]21)N1CCCCO1", -10.74],
  ["O=C(O)C(F)(F)F.O=C([C@@H]1CCO[C@@H]2CCN(Cc3ccc(F)cc3)C[C@H]21)N1CCCCO1", 73.44],
  ["CC(=O)Nc1cc(C2CC2)nn1-c1nc(C)c(C)c(=O)[nH]1", -13.24]
]}

Now for the molecule whose Percent Effect we want.
QUERY: Percent Effect for COCCNc1nnc(-c2ccccn2)s1 ?
RESULT: 14.66

---

Quick reference for Percent Effect among some compounds
experiment: In vitro enzyme assay to detect hydrolysis of chlorophenol red-beta-D-[…] directly proportional to the number of Toxoplasma stably expressing beta-galactosidase; assay type: functional, organism-based, Toxoplasma gondii; set-up: scale not given: in the data most compounds retested in dose-response had high values; conditions: 10 µM
About 440 (0.52%) of roughly 85,000 compounds showed an effect of 50% or more. This is one part of a sample in which strong results are shown more often than they occur.
Record the result as number plus unit.

// solved cases for Percent Effect follow
{"columns": ["Compound", "Percent Effect"],
 "data": [
  ["CC(C)N1CCC(c2n[nH]cc2-c2ccnc(N)c2)C1 (stereo unspecified)", "18.38%"],
  ["CC(C)CNc1cc(-c2c[nH]nc2C2CCN(C(=O)C3CC3)C2)ccn1 (stereo unspecified)", "86.59%"],
  ["CC(=O)N1CCC(c2n[nH]cc2-c2ccnc(N)c2)C1 (stereo unspecified)", "20.34%"],
  ["CC(C)Nc1cc(-c2c[nH]nc2C2CCN(C(=O)C3CC3)C2)ccn1 (stereo unspecified)", "77.26%"],
  ["Nc1cc(-c2c[nH]nc2C2CCCCN2C(=O)C2CCCC2)ccn1 (stereo unspecified)", "-17.94%"]
]}

Then this compound:
QUERY: What value of Percent Effect has been reported for the following compound? CC(C)Nc1cc(-c2c[nH]nc2C2CCN(C(=O)C3CCC3)C2)ccn1 (stereo unspecified)
RESULT: 95.4%

---

experiment: In vitro enzyme assay to detect hydrolysis of chlorophenol red-beta-D-[…] directly proportional to the number of Toxoplasma stably expressing beta-galactosidase; type: functional, organism-based, Toxoplasma gondii; parameters: scale not given: in the data most compounds retested in dose-response had high values; conditions: 50 µM
Hit rate of the full screen: of about 85,000 compounds, about 440 (0.52%) showed an effect of 50% or more. The sample holds strong results, similar compounds and a random draw of the others, so the mix is not that of the screen.
Quantity: Percent Effect (%)
Express the result in % but write the number alone.

Examples with answers:
{"columns": ["Molecule", "Unit descriptor", "Percent Effect"],
 "data": [
  ["CCC(NC(=O)c1cc(N)[nH]n1)c1nc(C)c[nH]1 (centres undefined)", "%", 4.795],
  ["CCn1ncnc1C(C)NC(=O)c1cc(Cl)ccc1F (centres undefined)", "%", 1.166],
  ["CSCC(CCO)NC(=O)c1cc(F)ccc1O (centres undefined)", "%", 96.99],
  ["O=C(NCCN1CCCCC1)c1cnccn1", "%", 1.153],
  ["CCC(OC)c1n[nH]c(=O)n1Cc1cccc(OC)c1 (centres undefined)", "%", -6.855],
  ["Cn1ccc2ccc(NS(=O)(=O)C3CC3)cc2c1=O", "%", 65.83],
  ["O=C(CN1CCOCC1)N1CCCC(c2nnc[nH]2)C1 (centres undefined)", "%", -8.944],
  ["CNCC1CCS(=O)(=O)C1 (centres undefined)", "%", 7.416],
  ["CCOCCSc1nnnn1CC1CCCO1 (centres undefined)", "%", 4.057],
  ["COC(=O)C(C)SCc1noc(C2CC2)n1 (centres undefined)", "%", 1.688]
]}

QUERY: What value of Percent Effect has been reported for the following molecule? COCc1nnc(-c2ccc3c(c2)OCO3)o1
RESULT: 23.78

QUERY: Please give the result for NCc1cccc(OCc2ccccn2)c1 too.
RESULT: -1.325

QUERY: Next: Cc1ccc2c(c1)C(=O)NCC2
RESULT: -9.759

QUERY: Now consider CC(=O)NCc1cccc(OCc2ccccn2)c1 .
RESULT: 53.39
